Please provide measured %-inhibition, CK1ε for the entries that follow.
Biological target: panel of more than 300 wild-type and mutant kinases (313 kinase panel) (Homo sapiens)
Assay: Kinase profiling in a biochemical assay panel (mobility shift assays and ELISA), %-inhibition at 1 μM; selectivity entropy
Conditions: kinase CK1ε; 1 μM compound
Include the unit after the number when you answer.

Query the reported %-inhibition, CK1ε for panel of more than 300 wild-type and mutant kinases (313 kinase panel) (Homo sapiens); item: `CC(C)(C)c1nc(-c2cccc(NS(=O)(=O)c3c(F)cccc3F)c2F)c(-c2ccnc(N)n2)s1`
10%

Would you mind doing `N#CC[C@H](C1CCCC1)n1cc(-c2ncnc3[nH]ccc23)cn1` as well?
7.39%

What do you have for `CCN(CC)CCNC(=O)c1c(C)[nH]c(/C=C2\C(=O)Nc3ccc(F)cc32)c1C` ?
45%

Can you handle `O=S(=O)(c1cccc2cnccc12)N1CCCNCC1` next?
-4.62%

Follow-up item: `Cc1ccc(Nc2nccc(N(C)c3ccc4c(C)n(C)nc4c3)n2)cc1S(N)(=O)=O`
0%

Please answer likewise for `Cc1cn(-c2cc(NC(=O)c3ccc(C)c(Nc4nccc(-c5cccnc5)n4)c3)cc(C(F)(F)F)c2)cn1`
0.595%

What do you get for COc1cc2nccc(Oc3ccc(NC(=O)C4(C(=O)Nc5ccc(F)cc5)CC4)cc3)c2cc1OC [cabozantinib] ?
3.28%

Quick one: `CNC(=O)c1cc(Oc2ccc(NC(=O)Nc3ccc(Cl)c(C(F)(F)F)c3)c(F)c2)ccn1`
-6%

====

Tested on: forty-four human cancer cell lines
Test: Cell proliferation assay (ATPlite, 72 hours) in the 44 cell line Oncolines panel
Format: cell-based
Conditions: Homo sapiens, SK-N-AS, read-out: cell panel IC50, SK-N-AS
Exercise: for every item that follows, state its recorded IC50.

Give its IC50 value. Item: COc1cc(Nc2c(C#N)cnc3cc(OCCCN4CCN(C)CC4)c(OC)cc23)c(Cl)cc1Cl [bosutinib]
923 nM

Then this compound: Cc1ccc(Nc2nccc(N(C)c3ccc4c(C)n(C)nc4c3)n2)cc1S(N)(=O)=O [pazopanib]
19400 nM

Again, but for CN(C)C/C=C/C(=O)Nc1cc2c(Nc3ccc(F)c(Cl)c3)ncnc2cc1O[C@H]1CCOC1 [afatinib]
2230 nM

Now consider O=S(=O)(c1cccc2cnccc12)N1CCCNCC1 [fasudil] .
> 31600 nM

Try this compound next: CCN(CC)CCNC(=O)c1c(C)[nH]c(/C=C2\C(=O)Nc3ccc(F)cc32)c1C [sunitinib]
1860 nM

====

Biological target: panel of more than 300 wild-type and mutant kinases (313 kinase panel) (Homo sapiens, UniProt Q9UM73)
Assay: Kinase profiling in a biochemical assay panel (mobility shift assays and ELISA), %-inhibition at 1 μM; selectivity entropy
Conditions: kinase ALK; 1 μM compound
Value type: %-inhibition, ALK (%)
Give the quantity in %, number only.

# get_value(readout='%-inhibition, ALK', item= `O=S(=O)(c1cccc2cnccc12)N1CCCNCC1` )
-4.38

Quick one: `CO[C@H]1C[C@@H]2CC[C@@H](C)[C@@](O)(O2)C(=O)C(=O)N2CCCC[C@H]2C(=O)O[C@H]([C@H](C)C[C@@H]2CC[C@@H](OCCO)[C@H](OC)C2)CC(=O)[C@H](C)/C=C(\C)[C@@H](O)[C@@H](OC)C(=O)[C@H](C)C[C@H](C)/C=C/C=C/C=C/1C`
1.68

And the next one, `CC(=O)Nc1cccc(-n2c(=O)n(C3CC3)c(=O)c3c(Nc4ccc(I)cc4F)n(C)c(=O)c(C)c32)c1` ?
-2.82

====

Molecular target: panel of more than 300 wild-type and mutant kinases (313 kinase panel) (Homo sapiens)
Assay: Kinase profiling in a biochemical assay panel (mobility shift assays and ELISA), %-inhibition at 1 μM; selectivity entropy
Conditions: kinase CK1γ2; 1 μM compound
Value type: %-inhibition, CK1γ2 (%)
The figure you give is taken to be in %; do not add the unit.

Endpoint output: %-inhibition, CK1γ2 of `CNC(=O)c1cc(Oc2ccc(NC(=O)Nc3ccc(Cl)c(C(F)(F)F)c3)c(F)c2)ccn1` . Value?
-3

Can you check `CO[C@H]1C[C@@H]2CC[C@@H](C)[C@@](O)(O2)C(=O)C(=O)N2CCCC[C@H]2C(=O)O[C@H]([C@H](C)C[C@@H]2CC[C@@H](OC(=O)C(C)(CO)CO)[C@H](OC)C2)CC(=O)[C@H](C)/C=C(\C)[C@@H](O)[C@@H](OC)C(=O)[C@H](C)C[C@H](C)/C=C/C=C/C=C/1C` next?
-3.32

// next record `Cc1nc(Nc2ncc(C(=O)Nc3c(C)cccc3Cl)s2)cc(N2CCN(CCO)CC2)n1`
20

How about `Cc1ccc(Nc2nccc(N(C)c3ccc4c(C)n(C)nc4c3)n2)cc1S(N)(=O)=O` ?
-0.747

What do we get for `CO[C@H]1C[C@@H]2CC[C@@H](C)[C@@](O)(O2)C(=O)C(=O)N2CCCC[C@H]2C(=O)O[C@H]([C@H](C)C[C@@H]2CC[C@@H](OCCO)[C@H](OC)C2)CC(=O)[C@H](C)/C=C(\C)[C@@H](O)[C@@H](OC)C(=O)[C@H](C)C[C@H](C)/C=C/C=C/C=C/1C` ?
-2.3

What do we get for `CS(=O)(=O)CCNCc1ccc(-c2ccc3ncnc(Nc4ccc(OCc5cccc(F)c5)c(Cl)c4)c3c2)o1` ?
-1.22

Next: `O=S(=O)(c1cccc2cnccc12)N1CCCNCC1`
18

====

Biological target: panel of more than 300 wild-type and mutant kinases (313 kinase panel) (Homo sapiens, UniProt P51955)
Sequence (P51955 whole entry, change not shown): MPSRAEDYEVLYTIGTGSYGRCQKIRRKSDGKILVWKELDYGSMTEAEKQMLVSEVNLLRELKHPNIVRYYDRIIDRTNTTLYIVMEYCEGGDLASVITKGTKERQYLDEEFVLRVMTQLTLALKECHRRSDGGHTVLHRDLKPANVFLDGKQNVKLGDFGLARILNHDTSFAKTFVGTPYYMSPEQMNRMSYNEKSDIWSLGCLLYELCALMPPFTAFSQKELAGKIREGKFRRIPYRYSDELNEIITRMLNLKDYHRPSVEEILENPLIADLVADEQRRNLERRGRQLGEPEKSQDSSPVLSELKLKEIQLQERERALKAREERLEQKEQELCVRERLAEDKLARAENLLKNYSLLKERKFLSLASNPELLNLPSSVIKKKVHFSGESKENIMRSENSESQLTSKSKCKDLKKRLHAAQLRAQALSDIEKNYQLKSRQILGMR
Assay: Kinase profiling in a biochemical assay panel (mobility shift assays and ELISA), %-inhibition at 1 μM; selectivity entropy
Settings: kinase NEK2; 1 μM
Please go through the items and note down their %-inhibition of NEK2.
# value in %; strip the unit string

Recorded %-inhibition of NEK2 of `CNC(=O)c1cc(Oc2ccc(NC(=O)Nc3ccc(Cl)c(C(F)(F)F)c3)c(F)c2)ccn1` , please.
-6.65

Next record, please: `COc1cc2c(Nc3ccc(Br)cc3F)ncnc2cc1OCC1CCN(C)CC1`
-7.42

Proceed to `CCCS(=O)(=O)Nc1ccc(F)c(C(=O)c2c[nH]c3ncc(-c4ccc(Cl)cc4)cc23)c1F`
-1

Record: `CS(=O)(=O)CCNCc1ccc(-c2ccc3ncnc(Nc4ccc(OCc5cccc(F)c5)c(Cl)c4)c3c2)o1`
-3.7

====

Biological target: panel of more than 300 wild-type and mutant kinases (313 kinase panel) (Homo sapiens, UniProt Q9UL54)
Sequence (Q9UL54 1-1235): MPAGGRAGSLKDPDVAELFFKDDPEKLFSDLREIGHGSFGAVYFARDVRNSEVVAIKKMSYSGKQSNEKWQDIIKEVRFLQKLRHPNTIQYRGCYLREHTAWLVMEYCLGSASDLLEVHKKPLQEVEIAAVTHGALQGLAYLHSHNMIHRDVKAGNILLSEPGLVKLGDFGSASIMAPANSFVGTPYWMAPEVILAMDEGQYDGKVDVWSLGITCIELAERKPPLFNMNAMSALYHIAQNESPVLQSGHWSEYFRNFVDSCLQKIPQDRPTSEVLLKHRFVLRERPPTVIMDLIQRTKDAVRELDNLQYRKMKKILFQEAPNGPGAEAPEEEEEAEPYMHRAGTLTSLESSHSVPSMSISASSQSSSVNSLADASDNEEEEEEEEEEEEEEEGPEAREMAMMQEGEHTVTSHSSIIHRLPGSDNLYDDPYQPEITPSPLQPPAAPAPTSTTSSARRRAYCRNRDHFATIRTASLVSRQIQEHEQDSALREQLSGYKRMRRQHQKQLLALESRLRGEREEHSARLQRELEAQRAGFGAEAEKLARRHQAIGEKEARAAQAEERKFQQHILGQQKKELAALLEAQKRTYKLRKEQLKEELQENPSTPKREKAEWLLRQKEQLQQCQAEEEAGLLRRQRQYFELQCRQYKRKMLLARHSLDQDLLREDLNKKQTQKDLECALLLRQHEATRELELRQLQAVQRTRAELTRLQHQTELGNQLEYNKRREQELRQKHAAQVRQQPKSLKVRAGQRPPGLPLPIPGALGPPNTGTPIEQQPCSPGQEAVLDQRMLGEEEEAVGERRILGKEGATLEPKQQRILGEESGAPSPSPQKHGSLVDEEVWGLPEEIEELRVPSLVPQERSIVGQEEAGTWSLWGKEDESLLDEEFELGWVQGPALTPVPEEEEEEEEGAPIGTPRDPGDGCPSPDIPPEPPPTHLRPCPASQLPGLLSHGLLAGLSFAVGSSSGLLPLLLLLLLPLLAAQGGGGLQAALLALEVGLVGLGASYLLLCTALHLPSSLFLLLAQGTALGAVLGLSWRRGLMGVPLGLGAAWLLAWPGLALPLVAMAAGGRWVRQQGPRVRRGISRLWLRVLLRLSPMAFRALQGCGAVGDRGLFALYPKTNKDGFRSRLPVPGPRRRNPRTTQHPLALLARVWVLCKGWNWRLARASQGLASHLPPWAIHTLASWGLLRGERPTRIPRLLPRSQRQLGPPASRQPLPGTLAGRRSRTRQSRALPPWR
Assay: Kinase profiling in a biochemical assay panel (mobility shift assays and ELISA), %-inhibition at 1 μM; selectivity entropy
Details: kinase TAOK2; 1 μM
Rule: %-inhibition of TAOK2 under 30% gives not satisfied, otherwise satisfied.

Quick check, %-inhibition of TAOK2 >= 30%? `CO[C@H]1C[C@@H]2CC[C@@H](C)[C@@](O)(O2)C(=O)C(=O)N2CCCC[C@H]2C(=O)O[C@H]([C@H](C)C[C@@H]2CC[C@@H](OCCO)[C@H](OC)C2)CC(=O)[C@H](C)/C=C(\C)[C@@H](O)[C@@H](OC)C(=O)[C@H](C)C[C@H](C)/C=C/C=C/C=C/1C`
not satisfied

Same question, `Cc1cn(-c2cc(NC(=O)c3ccc(C)c(Nc4nccc(-c5cccnc5)n4)c3)cc(C(F)(F)F)c2)cn1` this time
not satisfied

Queued: `CNC(=O)c1cc(Oc2ccc(NC(=O)Nc3ccc(Cl)c(C(F)(F)F)c3)c(F)c2)ccn1`
satisfied

Could you do the same for `COc1cc(Nc2c(C#N)cnc3cc(OCCCN4CCN(C)CC4)c(OC)cc23)c(Cl)cc1Cl` , please?
not satisfied

Next entry: `Cc1ccc(C(=O)Nc2ccc(CN3CCN(C)CC3)c(C(F)(F)F)c2)cc1C#Cc1cnc2cccnn12`
satisfied

Let us now turn to `O=S(=O)(c1cccc2cnccc12)N1CCCNCC1`
not satisfied

Would you mind doing `CC(C)(C)c1nc(-c2cccc(NS(=O)(=O)c3c(F)cccc3F)c2F)c(-c2ccnc(N)n2)s1` as well?
satisfied
